Tested on: K. pneumoniae ATCC 43816
Assay type: cell-based, Klebsiella pneumoniae
No end group written: not given here.
quantityMeasured: MIC (µM)
Numeric answer only, unit µM assumed.

substance	assaySystem	numericReadout
FPLIARLAAKFLPKIL-NH2 [OG9c‐De‐NH2]	K. pneumoniae ATCC 43816	4

Read the next record carefully.
The recorded MIC for FPLIARLAAKFLPKIL [OG9c‐De] is 32

====

System: E. coli ATCC 8739
Type: cell-based, Escherichia coli
No end group written: not given here.
quantityMeasured: MBC (µM)
# value in µM; strip the unit string

substance	quantityMeasured	valueUnit	numericReadout
FPLIARLAAKFLPKIL [OG9c‐De]	MBC	µM	16

Field MBC (entry FPLIARLAAKFLPKIL-NH2 [OG9c‐De‐NH2] ) reads 2
